The values you see were collected from PubChem BioAssay (NCI).

Reported TGI is given for each of the following compounds.
# Tested on: UACC-62 melanoma
# test_details: NCI tumour cell line growth inhibition, 48 h
readout_type: TGI

INSERT INTO assay_data (compound, readout_type, result) VALUES
  ('C=CCOn1c(C=C)nc2ccc(C)cc21', 'TGI', '26.8 µM'),
  ('CCCCCC[C@H](C)Nc1nc2ccccc2c2occc12', 'TGI', '24.1 µM'),
  ('c1ccc2c(-c3nc(-c4c[nH]c5ccncc45)cs3)c[nH]c2c1', 'TGI', '3.33 µM'),
  ('NNC(=O)C(=O)N/N=C1\CCC(=O)CC1C(=O)CCC(=O)Nc1ccc(Cl)cc1 (centres undefined)', 'TGI', '> 100 µM'),
  ('Cc1ccc(S(=O)CC(CF)OCn2cc(C)c(=O)[nH]c2=O)cc1 (centres undefined)', 'TGI', '> 100 µM'),
  ('C1CC2CN(CCCN3CCOCC3)C(C1)O2 (centres undefined)', 'TGI', '> 100 µM'),
  ('CC(Oc1ccccc1Cl)C(=O)NN1C(=O)CSC1c1ccccc1 (centres undefined)', 'TGI', '> 100 µM'),
  ('CC(C)(C)[Si](C)(C)OCc1cccc(OCCOc2cccc(CO[Si](C)(C)C(C)(C)C)c2[N+](=O)[O-])c1[N+](=O)[O-]', 'TGI', '> 100 µM'),
  ('Cn1cc(-c2ccc3nnc(Sc4ccc5ncccc5c4)n3n2)cn1', 'TGI', '> 100 µM'),
  ('COc1ccc(C(=O)NNc2nc(Cl)nc(N3CCN(C(c4ccccc4)c4ccccc4)CC3)n2)cc1', 'TGI', '3.54 µM'),
  ('CN=C(/N=c1\ssc(=NC)n1C)N(C)C', 'TGI', '> 100 µM'),
  ('CC(=O)NC1C(OCc2ccccc2)OC(CO)C(O)C1OC(C)C(=O)NC(C(=O)NC(CCC(=O)NCCCCNc1c2ccccc2nc2cccc([N+](=O)[O-])c12)C(N)=O)C(C)C (centres undefined)', 'TGI', '5.03 µM'),
  ('Cc1nc2ccc(NC(=O)CCNC(=O)CCCc3ccc(CC(C(=O)O)C(=O)O)cc3)cc2s1', 'TGI', '> 100 µM'),
  ('CCCC(=O)N[C@H]1C2C3CC4C5CC(C42)C1(C)C53 (some centres undefined)', 'TGI', '> 100 µM');

====

Reported TGI is given for each of the following compounds.
# Test system: HT29 colon
# test_details: NCI tumour cell line growth inhibition, 48 h
readout_type: TGI

INSERT INTO results (compound, test_target, result) VALUES
  ('C=CCP(=O)(CC=C)C(Cl)Cl', 'HT29 colon', '> 100 µM'),
  ('COc1cc(NC(=O)CCSc2nc3ccc(C)cc3c(=O)n2Cc2ccccc2)cc(OC)c1OC', 'HT29 colon', '> 100 µM'),
  ('CCOC(=O)c1cc(C)nc2c1c(=O)n(-c1ccccc1)c(=O)n2CCCCN1CCN(c2ccccc2)CC1', 'HT29 colon', '> 100 µM'),
  ('CCCC(=O)N[C@H]1C2C3CC4C5CC(C42)C1(C)C53 (stereo partly specified)', 'HT29 colon', '> 100 µM'),
  ('CN(C)c1nc2ccccc2c2c1c1c(n2Cc2ccccc2)-c2ccccc2C1=O', 'HT29 colon', '> 100 µM'),
  ('CC(C)(C)n1c(=O)[nH]c(=O)n1C(C)(C)C', 'HT29 colon', '> 100 µM');
